Provide the recorded IC50 for the entries that follow.
# Tested on: lipid peroxidation in rat liver mitochondria
# Experimental protocol: Lipid peroxidation assay in liver mitochondria in vitro (Fe2+/vitamin C)
# Assay type: biochemical, Sprague–Dawley (SD) rats
# Assay conditions: n = 3, read-out: IC50, inhibiting lipid peroxidation
# Procedure: Using the diagnostic kits from Biyuntian (Shanghai, China), liver mitochondria were obtained. The liver mitochondria from Sprague–Dawley (SD) rats were obtained, according to the references of Zuo et al.. In the tubes, 1 mL of mitochondria liquid, 0.5 mL of antioxidant solution, 0.25 mL of 1 mM Vitamin C, and 0.25 mL of 0.1 mM Fe^2+ were added in turn. The positive control group contains 0.5 mL of 0.05 M PBS buffer, instead of the antioxidant solution. […]
State the answer as a number, implicitly in µM.

Exercise: What reported IC50 corresponds to O=c1cc(-c2ccccc2)oc2cc(O)c(O)c(O)c12 on lipid peroxidation in rat liver mitochondria?
Solution: 12.5

Exercise: Now the molecule O=C1c2c(O)cc(O)cc2O[C@H](c2cc(O)c(O)c(O)c2)[C@H]1O [Dihydromyricetin]
Solution: 6.25

Exercise: Now the molecule O=C(/C=C/c1ccc(O)c(O)c1)O[C@H](Cc1ccc(O)c(O)c1)C(=O)O
Solution: 8.33

Exercise: Now the molecule CC(C)=CC[C@@H](O)C1=CC(=O)c2c(O)ccc(O)c2C1=O
Solution: 16.7
